# procedure.details: drug combination growth inhibition, ovarian cancer – cell-based, oncology-focused library, rucaparib conditional, profiling panel (AID 1508598)
# assay.setup: patient-derived ovarian cancer cells, CellTiter-Glo viability, 144 h; at 0.00488 µM; OCI-C5x cells; with rucaparib 10 µM; 100% = cells with rucaparib alone
Calls of active or inactive are those of the source.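 Rule for the calls: active = normalized viability below 100% at a tested concentration; inactive = the rest.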
Outcomes you can answer with include only these: active, inactive

INPUT: Tell me the recorded outcome of this test for `Cc1ccc(C(=O)N(CCCN)[C@@H](c2oc3cc(Cl)ccc3c(=O)c2Cc2ccccc2)C(C)C)cc1` .
OUTPUT: active

* * *

# procedure.details: JHH-DIPG-1 glioma cell viability, MIPE5.0 library, CellTiter-Glo luminescence, qHTS (AID 1347067);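 note: cells exposed to compound for 48 hours before readout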
# assay.setup: JHH-DIPG-1 glioma viability, CellTiter-Glo ATP luminescence
Inconclusive results are not listed. Activity calls are given as the source filed them. Cut-off not given; nearly all actives show AC50 up to about 26 µM.
// allowed return values: active, inactive

C[C@H](NC(=O)/C(C#N)=C/c1cccc(Br)n1)c1ccccc1 ... active

INPUT: // param item: `COc1cc(F)c(C(C)C)cc1-c1ccc(C(F)(F)F)cc1CN1C(=O)O[C@H](c2cc(C(F)(F)F)cc(C(F)(F)F)c2)[C@@H]1C` ; yields the recorded call
OUTPUT: inactive

INPUT: Now the molecule `COc1cc(C(C)C)c(Oc2cnc(NC(CO)CO)nc2N)cc1I`
OUTPUT: inactive

INPUT: Can you check `COC(=O)c1ccc([C@H]2c3[nH]c4ccccc4c3C[C@H](C(=O)OC)N2C(=O)CCl)cc1` next?
OUTPUT: active

INPUT: Thanks! And `CN(C)C1CCN(C(=O)c2ccc(NC(=O)Nc3nc(N4CCOCC4)nc(N4CCOCC4)n3)cc2)CC1` ?
OUTPUT: active

INPUT: And `CN(CC(=O)N(Cc1ccc(C2CCCCC2)cc1)c1ccc(C(=O)O)c(O)c1)S(=O)(=O)c1c(F)c(F)c(F)c(F)c1F` ?
OUTPUT: active

INPUT: Next record, please: `COc1cc(C(=O)NC2CCN(C)CC2)c(F)cc1Nc1ncc2c(n1)N(C1CCCC1)CC(F)(F)C(=O)N2C`
OUTPUT: active

INPUT: // repeat for `CCOc1cc2c(c(F)c1OCC)C(=N)N(CC(=O)c1cc(N3CCOCC3)c(OC)c(C(C)(C)C)c1)C2` and report
OUTPUT: active

* * *

# procedure.details: CRL1545 cell growth, single agent and combined, cisplatin and BGB IC20 combos (AID 1671464);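 note: cells exposed to compound for 96 hours before readout; 0% = vehicle DMSO and 100% = high DMSO killing control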
# assay.setup: CRL1545 osteosarcoma cells, single agent, at 5 µM, stronger effect = higher value
Parameter: inhibition. Scope: all listed entries.
Write the numeric value and follow it with the unit.

Consider the following illustrative entries.
NC(=O)c1nc(F)c[nH]c1=O ... -29.6%
O=C(O)CO.[NH2-].[NH2-].[Pt+2] ... -18%
Nc1ccccc1NC(=O)c1ccc(CNc2nccc(-c3cccnc3)n2)cc1 ... 90.8%
COc1cc(C=O)c([N+](=O)[O-])cc1OC ... -34.2%
COc1ccc(C(=O)CC2(O)C(=O)Nc3c(Cl)ccc(Cl)c32)cc1 (configuration not stated) ... 77.7%

INPUT: # lookup: inhibition of `Nc1nc2n[nH]nc2c(=O)[nH]1`
OUTPUT: 32.5%

INPUT: Then what about the molecule `C=C1[C@H](CO)[C@@H](O)C[C@@H]1n1cnc2c(=O)[nH]c(N)nc21` ?
OUTPUT: -41.7%

INPUT: Moving on to the next molecule: `C[C@]12CCCN1CC1=NNC(=O)c3cc(F)cc4[nH]c2c1c34`
OUTPUT: 35%

INPUT: Now consider `COc1cc2ncnc(-n3nc(-c4ccccn4)nc3N)c2cc1OC` .
OUTPUT: -52.5%

INPUT: Further, for `c1cc(Nc2cc(C3CC3)[nH]n2)nc(Nc2ccc3nc[nH]c3c2)n1` ?
OUTPUT: 81.3%

INPUT: Now consider `NCCOc1cc(C(=O)Nc2cc(OCCN)c3ccccc3n2)nc(C(=O)Nc2cc(OCCN)c3ccccc3n2)c1` and answer again.
OUTPUT: 55%

INPUT: # iterate: `COc1ccc(-n2c(SCCCN3C(=O)c4cccc5cccc(c45)C3=O)nnc2-c2ccncc2)cc1`
OUTPUT: 7.92%

INPUT: Same read-out for `Cc1ccc2nc(NCCN)c3ncc(C)n3c2c1` ?
OUTPUT: 99.7%

INPUT: How about `O=C(/C=C/c1ccc(CN(CCO)CCc2c[nH]c3ccccc23)cc1)NO` ?
OUTPUT: 94.5%

INPUT: Request: `CC(=O)[C@]1(N)Cc2c(O)c3c(c(O)c2[C@@H](O[C@H]2C[C@H](O)[C@H](O)CO2)C1)C(=O)c1ccccc1C3=O`
OUTPUT: 90.1%

INPUT: Also need NC1CCC(N[C@@H]2C[C@H]2c2ccccc2)CC1 (some centres not stated) , thanks.
OUTPUT: -26.5%

INPUT: Try this molecule too: `Nc1nc(OCc2cc(Br)cs2)c2[nH]cnc2n1`
OUTPUT: -19.6%

INPUT: Follow-up item: `CN[C@@H]1CN(c2ccc3c(=O)c(C(=O)O)cn(-c4nccs4)c3n2)C[C@H]1OC`
OUTPUT: 99.7%

INPUT: Try this molecule next: `CCCCc1nc2cc(/C=C/C(=O)NO)ccc2n1CCN(CC)CC`
OUTPUT: 93.1%

INPUT: Another molecule: `CN(C)Cc1c(C(=O)NCCOc2ccc(C(=O)NO)cc2)oc2ccccc12`
OUTPUT: 96.4%

INPUT: Then `CS(=O)(=O)c1ccc(-c2nnc(/C=C/c3nnc(-c4ccc(C#N)cc4)o3)n2-c2ccccc2Cl)nc1` ?
OUTPUT: -32.2%

INPUT: # repeat for `O=C(CCCCCCNC(=O)c1cnc(N(c2ccccc2)c2ccccc2Cl)nc1)NO`
OUTPUT: 88.6%

* * *

# procedure.details: viability loss in pontine glioma line – cell-based, SU-DIPG-XVII, MIPE5.0, CellTiter-Glo, qHTS, dose response (AID 1347060);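 for AC50: cells exposed to compound for 48 hours before viability readout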
# assay.setup: CellTiter-Glo ATP luminescence
Records with an inconclusive call do not appear. Calls of active or inactive are those of the source. Cut-off not given; nearly all actives show AC50 up to about 26 µM.
Please reply with one of these outcomes: Yes = active, No = inactive

Examples with answers:
COCCNc1cc(NC(=O)N2CCCc3cc(CN4CCN(C)CC4=O)c(C=O)nc32)ncc1C#N ... No
NCC(=O)Nc1ccc(-n2nc(C(F)(F)F)cc2-c2ccc3c(ccc4ccccc43)c2)cc1 ... Yes
CC(C)C[C@H](CC(=O)O)C(=O)N[C@@H](Cc1c[nH]c2ccccc12)C(=O)N[C@@H](C)c1ccccc1 ... No
OC1CCC(Oc2cccc3cnc(Nc4ccc5nc[nH]c5c4)nc23)CC1 (stereo not given) ... Yes

INPUT: # fetch the recorded call for CC(=O)OC1C(C)OC(Oc2c(-c3ccc(O)cc3)oc3cc(O)cc(O)c3c2=O)C(O)C1OC(C)=O (stereo not given) here
OUTPUT: No

* * *

# procedure.details: drug combination toxicity in non-malignant astrocytes – cell-based, BGB or cisplatin IC20 combos, cytotoxicity control for chromothriptic childhood tumor combination screen (AID 1671460);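 note: cells exposed to compounds for 96 hours before viability readout; 0% = vehicle and 100% = killing control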
# assay.setup: Human astrocytes, viability inhibition, drug combinations; measured here: combo with BGB IC20; at 0.5 µM; stronger effect = higher value
result.type: inhibition (%)
Report as a plain number; the unit % is understood.

Past entries and their recorded results:
O=c1cc(N2CCOCC2)oc2c1ccc1ccccc12 ... -0.854
O=C(/C=C/c1ccc(CN(CCO)CCc2c[nH]c3ccccc23)cc1)NO ... 92

INPUT: Looking for the measured inhibition of `NCCOc1cc(C(=O)Nc2cc(OCCN)c3ccccc3n2)nc(C(=O)Nc2cc(OCCN)c3ccccc3n2)c1` , can you help?
OUTPUT: 5.26

INPUT: What would you report for `O=C(CCCCCCNC(=O)c1cnc(N(c2ccccc2)c2ccccc2Cl)nc1)NO` ?
OUTPUT: 11.7

INPUT: Follow-up entry: `O=C(/C=C/c1cccc(S(=O)(=O)Nc2ccccc2)c1)NO`
OUTPUT: 38.1

INPUT: Next compound: `NC(=O)c1nc(F)c[nH]c1=O`
OUTPUT: -7.39

INPUT: Cool, now `CC(C)OC(=O)[C@H](C)N[P@](=O)(OC[C@H]1O[C@@H](n2ccc(=O)[nH]c2=O)[C@](C)(F)[C@@H]1O)Oc1ccccc1`
OUTPUT: 12

* * *

# procedure.details: drug combination growth inhibition, ovarian cancer – cell-based, oncology-focused library, rucaparib conditional, profiling panel (AID 1508598)
# assay.setup: patient-derived ovarian cancer cells, CellTiter-Glo viability, 144 h; at 5 µM; OCI-C5x cells; without rucaparib; stronger effect = lower value
# if measured viability < 80%: satisfied  # else: not satisfied

Nc1cc(C(F)(F)F)c(-c2cc(N3CCOCC3)nc(N3CCOCC3)n2)cn1 ... satisfied
CCOc1cc2ncc(C#N)c(Nc3ccc(F)c(Cl)c3)c2cc1NC(=O)/C=C/CN(C)C ... satisfied

INPUT: Lab note: viability threshold 80%. Does this compound come in strictly under it? `Cc1ccc(-c2csc(NC(=O)c3ccccc3)n2)c(C)c1`
OUTPUT: not satisfied

INPUT: Follow-up item: `COc1c(C)cnc(Cn2cnc3c(Cl)nc(N)nc32)c1C`
OUTPUT: satisfied

INPUT: Another compound: `COc1cc(Nc2ncc(F)c(Nc3ccc4c(n3)NC(=O)C(C)(C)O4)n2)cc(OC)c1OC`
OUTPUT: not satisfied

INPUT: Now the compound `C=CCn1c(=O)c2cnc(Nc3ccc(N4CCN(C)CC4)cc3)nc2n1-c1cccc(C(C)(C)O)n1`
OUTPUT: satisfied

INPUT: And for `CC(C)OC(=O)C1=CN(C(=O)c2ccc(F)c(F)c2)CC(C)(C)c2c1[nH]c1ccccc21` ?
OUTPUT: not satisfied

INPUT: And for `C#CC[C@H](c1nc2cc(Cl)ccc2c(=O)n1Nc1ccccc1)N(CCCN)C(=O)c1cccc(Cl)c1F` ?
OUTPUT: satisfied

INPUT: // next record `CC1(COc2ccc3c(c2)ncn3-c2ccc3cccc(N4CCC(N)CC4)c3n2)COC1`
OUTPUT: satisfied

INPUT: And then `Cc1cn(-c2cc(NC(=O)c3ccc(C)c(Nc4nccc(-c5cccnc5)n4)c3)cc(C(F)(F)F)c2)cn1` , what is it?
OUTPUT: not satisfied

INPUT: `Cc1cnc(-c2cnc(NCCNc3ccc(C#N)cn3)nc2-c2ccc(Cl)cc2Cl)[nH]1` , same question.
OUTPUT: not satisfied

From: PubChem BioAssay
